Data origin: PubChem BioAssay

Measurement Notes: drug combination growth inhibition, ovarian cancer – cell-based, oncology-focused library, rucaparib conditional, profiling panel (AID 1508598)
Conditions: patient-derived ovarian cancer cells, CellTiter-Glo viability, 144 h; at 0.000305 µM; OCI-P5x cells; with rucaparib 20 µM; stronger effect = lower value; 100% = cells with rucaparib alone
Property Label: viability (%)

- Compound: "C[C@H](O[C@H]1OCCN(Cc2n[nH]c(=O)[nH]2)[C@H]1c1ccc(F)cc1)c1cc(C(F)(F)F)cc(C(F)(F)F)c1"
  Observed Value: 100
- Compound: "CCOC(=O)c1cnc2ccc(-c3cncc(NS(=O)(=O)c4ccccc4)c3)cn12"
  Observed Value: 102
- Compound: "CC(C)(C(=O)NCC(F)(F)C(F)(F)F)C(=O)N[C@H]1C(=O)Nc2ccccc2-c2ccccc21"
  Observed Value: 103
- Compound: "CO[C@H]1C[C@H]2CC[C@@H](C)[C@@](O)(O2)C(=O)C(=O)N2CCCC[C@H]2C(=O)O[C@H]([C@H](C)C[C@@H]2CC[C@H](OC(=O)C(C)(CO)CO)[C@H](OC)C2)CC(=O)[C@H](C)/C=C(\\C)[C@@H](O)[C@@H](OC)C(=O)[C@H](C)C[C@H](C)/C=C/C=C/C=C/1C"
  Observed Value: 85
- Compound: "COc1cccc2c1C(=O)c1c(O)c3c(c(O)c1C2=O)C[C@@](O)(C(=O)CO)C[C@H]3O[C@H]1C[C@H](N)[C@H](O)[C@H](C)O1"
  Observed Value: 109
- Compound: "COc1cccc(-c2cc(F)ccc2[C@H]2Cc3nc(N)nc(C)c3C(=O)N2)n1"
  Observed Value: 108
- Compound: "CC(C)NCCCn1c(Sc2cc3c(cc2I)OCO3)nc2c(N)ncnc21"
  Observed Value: 95.1
- Compound: "CCOC(=O)c1[nH]c2cc(Cl)ccc2c1C(C(=O)NC(C)(C)C)N(C=O)Cc1ccc(Cl)cc1 (configuration not stated)"
  Observed Value: 75.1
- Compound: "C=CCNC1=C2C[C@@H](C)C[C@H](OC)[C@H](O)[C@@H](C)/C=C(\\C)[C@H](OC(N)=O)[C@@H](OC)/C=C\\C=C(\\C)C(=O)NC(=CC1=O)C2=O"
  Observed Value: 119
- Compound: "COc1cc([C@H]2c3cc4c(cc3[C@@H](O[C@@H]3O[C@@H]5CO[C@@H](c6cccs6)O[C@H]5[C@H](O)[C@H]3O)[C@H]3COC(=O)[C@H]23)OCO4)cc(OC)c1O"
  Observed Value: 100
- Compound: "CC(C)C[C@H](NP(=O)(O)O[C@@H]1O[C@@H](C)[C@H](O)[C@@H](O)[C@H]1O)C(=O)N[C@@H](Cc1c[nH]c2ccccc12)C(=O)O"
  Observed Value: 105
- Compound: "NC(=O)CCCSc1nc(N)nc(-c2c(Cl)cc3c4c(cccc24)COC3)n1"
  Observed Value: 104
- Compound: "CCC1=CC2CN(C1)Cc1c([nH]c3ccccc13)[C@@](C(=O)OC)(c1cc3c(cc1OC)N(C)[C@H]1[C@@](O)(C(=O)OC)[C@H](OC(C)=O)[C@]4(CC)C=CCN5CC[C@@]31[C@H]54)C2 (some centres not stated)"
  Observed Value: 1.99
- Compound: "Cc1cc2c(C(=O)NC[C@H](C)c3ccccc3)c(O)c(O)cc2c(O)c1-c1c(C)cc2c(C(=O)NC[C@H](C)c3ccccc3)c(O)c(O)cc2c1O"
  Observed Value: 99.3
- Compound: "COC1=C2C[C@H](C)C[C@@H](OC)[C@H](O)[C@H](C)/C=C(\\C)[C@H](OC(N)=O)[C@@H](OC)/C=C/C=C(\\C)C(=O)NC(=CC1=O)C2=O"
  Observed Value: 108
- Compound: "CO[C@H]1C[C@@H]2CC[C@@H](C)[C@@](O)(O2)C(=O)C(=O)N2CCCC[C@H]2C(=O)O[C@H]([C@@H](C)C[C@@H]2CC[C@@H](OCCO)[C@H](OC)C2)CC(=O)[C@H](C)/C=C(\\C)[C@H](O)[C@@H](OC)C(=O)[C@H](C)C[C@H](C)/C=C/C=C/C=C/1C"
  Observed Value: 91.8
- Compound: "CO[C@H]1/C=C\\C=C(\\C)C(=O)NC2=CC(=O)C(NCCN(C)C)=C(C[C@@H](C)C[C@H](OC)[C@H](O)[C@@H](C)/C=C(\\C)[C@@H]1OC(N)=O)C2=O"
  Observed Value: 120
- Compound: "C[C@@]12CC[C@H]3c4ccc(O)cc4C[C@@H](CCCCCCCCCS(=O)CCCC(F)(F)C(F)(F)F)[C@H]3[C@@H]1CC[C@@H]2O (some centres not stated)"
  Observed Value: 110
- Compound: "CC(=O)O[C@@]1(C(C)=O)CC[C@H]2[C@@H]3C=C(C)C4=CC(=O)CC[C@]4(C)[C@@H]3CC[C@@]21C"
  Observed Value: 96.4
- Compound: "CCOC(=O)NCCCC(=O)NCCc1ccccc1"
  Observed Value: 93.8
- Compound: "CC(=O)[C@]1(O)Cc2c(O)c3c(c(O)c2[C@H](O[C@H]2C[C@H](N)[C@H](O)[C@H](C)O2)C1)C(=O)c1ccccc1C3=O"
  Observed Value: 110
- Compound: "Cc1[nH]c(C=C2C(=O)Nc3ccc(S(=O)(=O)N(C)c4cccc(Cl)c4)cc32)c(C)c1C(=O)N1CCN(C)CC1"
  Observed Value: 106
- Compound: "Nc1nonc1C(=Nc1ccc(F)c(Cl)c1)NO"
  Observed Value: 87
- Compound: "Cc1cc(C)c(-c2csc(NC(=O)c3ccccc3)n2)c(C)c1"
  Observed Value: 104
- Compound: "CC(=O)O[C@@]1(C(C)=O)CC[C@H]2[C@@H]3C[C@H](C)C4=CC(=O)CC[C@]4(C)[C@@H]3CC[C@@]21C"
  Observed Value: 94.9
- Compound: "COc1cccc2c1C(=O)c1c(O)c3c(c(O)c1C2=O)C[C@@](O)(C(C)=O)C[C@H]3O[C@H]1C[C@H](N)[C@H](O)[C@H](C)O1"
  Observed Value: 110
- Compound: "CC#C[C@@]1(O)CC[C@H]2[C@@H]3CCC4=CC(=O)CCC4=C3[C@H](c3ccc(N(C)C)cc3)C[C@@]21C"
  Observed Value: 88.4
